tested on: RPA194; assay: Determination of RPA194 IC50 (immunofluorescence image analysis of RPA194 degradation); assay type: cell-based; conditions: U2OS cells, 3 h treatment, 0.1-10 μM, fold change to control, three-parameter fit
measured metric: IC50 (µM)

CN(C)C(C)(C)CNC(=O)c1cccn2c(=O)c3cc4ccccc4cc3nc12 [Compound 31] :: 0.16

I: CN1CC(NC(=O)c2cccn3c(=O)c4cc5ccccc5cc4nc23)C1 [Compound 29]
II: O=C(NCCc1ccncc1)c1cccn2c(=O)c3cc4ccccc4cc3nc12 [Compound 37]
Prompt: Larger number for IC50: I , or II ? # reply format: chosen label
Response: II
(II: 3.5 µM, I: 0.9 µM)

Data provenance: patent US11001581B2
